Biological target: Mitogen-activated protein kinase 1 (Mus musculus, UniProt P63085)
Sequence (P63085 whole entry): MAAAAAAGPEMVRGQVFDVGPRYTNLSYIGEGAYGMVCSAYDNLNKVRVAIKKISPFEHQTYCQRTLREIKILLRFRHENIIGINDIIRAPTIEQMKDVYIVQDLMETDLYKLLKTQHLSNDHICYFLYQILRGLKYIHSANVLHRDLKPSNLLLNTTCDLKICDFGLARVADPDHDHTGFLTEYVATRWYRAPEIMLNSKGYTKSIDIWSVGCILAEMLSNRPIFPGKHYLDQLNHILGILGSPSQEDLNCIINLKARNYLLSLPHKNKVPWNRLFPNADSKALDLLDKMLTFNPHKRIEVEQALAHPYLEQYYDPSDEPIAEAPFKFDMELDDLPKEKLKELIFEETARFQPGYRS
Experiment: TdF (Temperature Dependence Fluorescence) Assay: The SAR (Structure Activity Relationship) for ERK ligands covered by this invention was interrogated using the TdF (Temperature Dependence Fluorescence) assay or best known as thermal shift assay. (M. W. Pantoliano, et al., "High-density miniaturized thermal shift assays as a general strategy for drug discovery," J. Biomol. Screen 6 (2001) 429-440) The TdF assay was mainly conducted in the 96-well based CHROMO-4 real time fluorescence plate reader (BioRad). The Sypro Orange (Sigma-Aldrich), environmentally sensitive fluorescence dye, was used to monitor the protein folding-unfolding transition. Protein-ligand binding was gauged by the change (or shift) in the unfolding transition temperature (ΔTm) acquired at protein alone with respect to protein in the presence of ligand of interest.Compound of interest was first prepared in DMSO stock (typical concentration: 10 mM). […] Final percentage of DMSO resided in the sample was 2%. The sample plate was heated from 30° C. to 90° C. with thermal ramping rate of 1° C./min.
Property Name: Kd (nM)
All answers are understood in nM, so give the number only.

What value of Kd has been recorded for this entry: O=C(N[C@H]1CNC[C@@H]1c1ccccc1)N1CCc2[nH]nc(-c3ccncc3)c2C1 (racemic)
6
